Molecular target: T1, rat serum albumin (rat, UniProt P02770 25-608)
T1 construct: bought protein, amine-coupled to a CM5 chip; also called Rat SA; RSA
Experiment: SPR (Biacore 8K), albumin immobilised, 25 C, 1:1 kinetics
Description: Immobilization of serum albumin to a Series S Sensor Chip CM5 surface is performed according to the manufacturer's instructions (Amine Coupling Kit BR-1000-50). Briefly, carboxyl groups on the sensor chip surfaces (flow cell 1 and 2) are activated by injecting 70 μL of a mixture containing 75 mg/ml EDC and 11.5 mg/ml NHS at 10 μL/min. […]
READOUT_TYPE: Kd (µM)
# unit: µM | format: bare number

Input: What value of measured Kd is listed for INS Analog 30 (other, single-chain insulin B-L2-A-L1-VHH fusion; also called Ex. 30) FVSQHLCGSHLVEALRLVCGERGFHYTPKTGGGGGGGIVEQCCHSICSLYQLENYCGPGPQPGPQPGPQPGPQPGPQPGPQPGPQPGPQEVQLLESGGGLVQPGGSLRLSCAASGRYIDETAVAWFRQAPGKEREFVAGIGGGVDITYYADSVKGRFTISRDNSKNTLYLQMNSLRPEDTAVYYCAARPGRPLITSKVADLYPYWGQGTLVTVSSPP ?
Output: 0.03

Hello, the source for this data is patent US20220378931A1, in case you need it.
